- experimental-system: Enoyl-[acyl-carrier-protein] reductase [NADH] (Mycobacterium tuberculosis) (UniProt P9WGR1)
- procedure-summary: Inhibition of Mycobacterium tuberculosis recombinant InhA expressed in Escherichia coli using trans-2-dodecenoyl-coenzyme-A as substrate at 50 uM
Reported inhibition values follow for various compounds

# count of solved cases: 2
sample-smiles: CCCCCCCCCCc1cn(Cc2cccc(Cl)c2)nn1
inhibition: 42%
--
sample-smiles: CCCCCCCCCCCCn1cc(Cc2ccccc2)nn1
inhibition: 58%

Field: next compound
Return reported inhibition; argument: CCCCCCCCCCc1cn(Cc2ccccc2)nn1
44%

* * *

- System: Mycobacterium tuberculosis
- procedure-summary: Antimycobacterial activity against Mycobacterium tuberculosis H37Rv by two-fold serial dilution method
- Format: functional
measured-attribute: MIC (µg/mL)
Give the value in µg/mL but do not write µg/mL after it.

# count of solved cases: 3
sample-smiles: CCCCCCCCCCCCn1cc(CCc2ccccc2)nn1
output-unit: µg/mL
MIC: 0.5

sample-smiles: CCCCCCCCCCc1cn(CCc2ccccc2)nn1
output-unit: µg/mL
MIC: 4

sample-smiles: CCCCCCCCCCCCc1cn(CCc2ccc(OC)c(OC)c2)nn1
output-unit: µg/mL
MIC: 0.25

Return reported MIC; argument: CCCCCCc1cn(Cc2cccc(Cl)c2)nn1
4

Return reported MIC; argument: CCCCCCCCCCCCc1cn(CCc2ccccc2)nn1
4

Return reported MIC; argument: CCCCCCCCn1cc(Cc2ccccc2)nn1
25

Return reported MIC; argument: CCCCCCCCCCc1cn(Cc2cccc(Cl)c2)nn1
4

Return reported MIC; argument: CCCCCCCCCn1cc(Cc2ccccc2)nn1
25

Return reported MIC; argument: CCCCCCCCc1cn(CCc2ccccc2C)nn1
2

Return reported MIC; argument: CCCCCCCCCCCCc1cn(Cc2cccc(OC)c2)nn1
4

* * *

- Tested on: Mycobacterium tuberculosis
- procedure-summary: Antimycobacterial activity against Mycobacterium tuberculosis H37Rv by two-fold serial dilution method
- Type: functional
measured-attribute: MIC (µg/mL)
Give the value in µg/mL but do not write µg/mL after it.

sample-smiles: CCCCCCCCCCc1cn(CCc2ccccc2C)nn1
MIC (µg/mL): 2
--
sample-smiles: CCCCCCCCCCc1cn(CCc2ccccc2OC)nn1
MIC (µg/mL): 2
--
sample-smiles: CCCCCCc1cn(CCc2ccccc2)nn1
MIC (µg/mL): 10
--
sample-smiles: CCCCCCCCCCCCn1cc(Cc2ccccc2)nn1
MIC (µg/mL): 25
--
sample-smiles: CCCCCCCCCCCCn1cc(COc2ccc(Cl)cc2Cl)nn1
MIC (µg/mL): 4

Field: next compound
Return reported MIC; argument: CCCCCCCCCCc1cn(CCc2ccc(OC)c(OC)c2)nn1
2

* * *

- experimental-system: Enoyl-[acyl-carrier-protein] reductase [NADH] (Mycobacterium tuberculosis) (UniProt P9WGR1)
- Sequence (whole entry): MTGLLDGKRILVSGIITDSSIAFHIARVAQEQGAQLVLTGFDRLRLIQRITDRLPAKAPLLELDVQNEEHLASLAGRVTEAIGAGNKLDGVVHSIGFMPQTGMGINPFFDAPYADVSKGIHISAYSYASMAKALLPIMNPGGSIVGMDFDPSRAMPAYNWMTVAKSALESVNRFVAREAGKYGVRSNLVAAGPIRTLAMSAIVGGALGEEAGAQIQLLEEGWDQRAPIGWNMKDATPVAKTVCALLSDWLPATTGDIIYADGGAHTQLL
- procedure-summary: Inhibition of Mycobacterium tuberculosis recombinant InhA expressed in Escherichia coli using trans-2-dodecenoyl-coenzyme-A as substrate at 50 uM
measured-attribute: inhibition

sample-smiles: CCCCCCCCc1cn(Cc2ccccc2)nn1
inhibition: 34%
--
sample-smiles: CCCCCCCCCCCCn1nncc1CCc1ccccc1
inhibition: 9%
--
sample-smiles: CCCCCCCCCCCCn1cc(COc2ccc(Cl)cc2OC)nn1
inhibition: 35%

Return reported inhibition; argument: CCCCCCCCCCc1cn(Cc2cccc(OC)c2)nn1
20%

Return reported inhibition; argument: CCCCCCCCCCc1cn(CCc2ccccc2C)nn1
58%

Return reported inhibition; argument: CCCCCCCCCCCCc1cn(CCc2ccccc2)nn1
67%

Return reported inhibition; argument: CCCCCCCCn1cc(-c2cccc(C)c2)nn1
33%

Return reported inhibition; argument: CCCCCCCCCCCCc1cn(CCc2ccccc2OC)nn1
61%

Return reported inhibition; argument: CCCCCCCCn1cc(Cc2ccccc2)nn1
73%

Return reported inhibition; argument: CCCCCCc1cn(CCc2ccccc2)nn1
10%

Return reported inhibition; argument: CCCCCCCCCCc1cn(CCc2ccccc2)nn1
43%

Return reported inhibition; argument: CCCCCCCCCn1cc(Cc2ccccc2)nn1
75%
